target: Prostaglandin G/H synthase 1 (Homo sapiens, UniProt P23219); type: functional; also: assay procedure not described here
Sequence (P23219 whole entry): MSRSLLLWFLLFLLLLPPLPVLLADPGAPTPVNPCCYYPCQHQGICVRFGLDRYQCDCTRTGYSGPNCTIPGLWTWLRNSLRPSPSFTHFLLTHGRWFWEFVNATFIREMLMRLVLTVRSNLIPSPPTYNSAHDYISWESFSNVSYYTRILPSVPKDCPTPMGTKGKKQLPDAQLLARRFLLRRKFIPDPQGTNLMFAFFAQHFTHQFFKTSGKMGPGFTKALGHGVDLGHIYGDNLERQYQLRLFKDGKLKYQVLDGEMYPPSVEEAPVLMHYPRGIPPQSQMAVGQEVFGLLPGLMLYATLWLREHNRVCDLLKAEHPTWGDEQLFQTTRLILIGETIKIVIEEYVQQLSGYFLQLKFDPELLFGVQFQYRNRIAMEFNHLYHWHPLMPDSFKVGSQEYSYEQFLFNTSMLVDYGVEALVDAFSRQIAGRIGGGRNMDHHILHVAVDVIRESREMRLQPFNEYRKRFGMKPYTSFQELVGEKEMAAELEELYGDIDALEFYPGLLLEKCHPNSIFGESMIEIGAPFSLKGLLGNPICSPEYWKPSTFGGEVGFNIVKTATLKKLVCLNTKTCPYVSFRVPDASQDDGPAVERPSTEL
Would you mind telling me the reported AC50 of each entry?

[in] Name the reported AC50 value associated with the compound Cn1c(CCCC(=O)O)nc2cc(N(CCCl)CCCl)ccc21
[out] > 30 µM

[in] Record: CC(=O)OCC(=O)[C@@]1(OC(C)=O)[C@@H](C)C[C@H]2[C@@H]3C[C@H](F)C4=CC(=O)C=C[C@]4(C)[C@@]3(F)[C@@H](O)C[C@@]21C [DIFLORASONE DIACETATE]
[out] > 30 µM

[in] Next record, please: OC(CN1CCCCC1)c1cc(-c2ccccc2)on1 (configuration not stated)
[out] > 30 µM

[in] Then this compound: CC(C)N1CCN(c2ccc(OCC3COC(Cn4cncn4)(c4ccc(Cl)cc4Cl)O3)cc2)CC1 (configuration not stated)
[out] > 30 µM

[in] Ok, now N[C@@H](Cc1ccc(O)cc1)C(=O)O
[out] > 30 µM

[in] Also need Nc1ccn(C[C@@H](CO)OCP(=O)(O)O)c(=O)n1 , thanks.
[out] > 30 µM

[in] Try the compound NC(=O)C1(N2CCCCC2)CCN(CCCC(=O)c2ccc(F)cc2)CC1
[out] > 30 µM

[in] Now the compound CC(C)NC[C@H](O)COc1ccc(O)cc1
[out] 8.99 µM

[in] And what about the compound Cc1c(C)c2c(c(C)c1O)CCC(C)(COc1ccc(CC3SC(=O)NC3=O)cc1)O2 (configuration not stated) ?
[out] 5.93 µM

[in] Record: Cc1ncc(CO)c(CO)c1O
[out] > 30 µM

[in] Now consider OCc1ccccc1 .
[out] > 30 µM

[in] What about COC(=O)N[C@H](C(=O)N1CC2(CC2)C[C@H]1c1ncc(-c2ccc3c(c2)C(F)(F)c2cc(-c4ccc5nc([C@@H]6[C@H]7CC[C@H](C7)N6C(=O)[C@@H](NC(=O)OC)C(C)C)[nH]c5c4)ccc2-3)[nH]1)C(C)C ?
[out] > 30 µM

[in] Next entry: O=c1[nH]c(=O)n([C@H]2C[C@H](O)[C@@H](CO)O2)cc1/C=C/Br
[out] > 30 µM

[in] Check C[C@]12CC[C@@H]3c4ccc(OC(=O)N(CCCl)CCCl)cc4CC[C@H]3[C@@H]1CC[C@@H]2OP(=O)(O)O [ESTRAMUSTINE PHOSPHATE] too.
[out] > 30 µM

[in] Would you mind doing CC1=C(C/C=C(\C)CCC[C@H](C)CCC[C@H](C)CCCC(C)C)C(=O)c2ccccc2C1=O as well?
[out] > 30 µM

[in] Okay, and NC(=O)N/N=C/c1ccc([N+](=O)[O-])o1 ?
[out] > 30 µM

[in] // same read-out, input: NCC1(CC(=O)O)CCCCC1
[out] > 30 µM

---

target: Melanocortin receptor 3 (Homo sapiens, UniProt P41968); also: assay procedure not described here
Sequence (P41968 whole entry): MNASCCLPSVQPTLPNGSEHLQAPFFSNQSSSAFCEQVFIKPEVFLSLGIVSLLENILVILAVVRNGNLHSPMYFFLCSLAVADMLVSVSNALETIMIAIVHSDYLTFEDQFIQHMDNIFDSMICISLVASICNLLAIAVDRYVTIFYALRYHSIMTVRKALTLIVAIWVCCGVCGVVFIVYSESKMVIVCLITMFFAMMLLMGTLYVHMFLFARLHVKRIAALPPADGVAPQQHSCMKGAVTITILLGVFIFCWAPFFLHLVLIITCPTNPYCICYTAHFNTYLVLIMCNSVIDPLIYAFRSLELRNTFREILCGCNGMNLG
Please respond with reported AC50 for every item in the list.

[in] Fill in the blank: the reported AC50 of CCC1(c2ccccc2)C(=O)NCNC1=O is ____.
[out] > 10 µM

[in] Lookup c1cnc2cc3c(cc2n1)[C@@H]1CNC[C@H]3C1
[out] > 30 µM

[in] Please answer likewise for CCc1ccc(C(=O)C(C)CN2CCCCC2)cc1 (centres undefined)
[out] > 30 µM

[in] // same read-out, input: CC(C)NCC(O)COc1ccc(CC(N)=O)cc1 (centres undefined)
[out] > 30 µM

[in] Please do the same for CC(C)(Oc1ccc(Cl)cc1)C(=O)OCCOC(=O)c1cccnc1 [ETOFIBRATE] as well.
[out] > 30 µM

[in] Entry CS(=O)(=O)NC(=O)CCC/C=C\C[C@H]1C(=O)C[C@@H](O)[C@@H]1/C=C/[C@@H](O)COc1ccccc1 please
[out] > 30 µM

[in] Input CC(=O)SCC(Cc1ccccc1)C(=O)NCC(=O)OCc1ccccc1 (centres undefined)
[out] > 30 µM

[in] Next entry: CS(=O)(=O)Nc1ccc([N+](=O)[O-])cc1Oc1ccccc1 [NIMESULIDE]
[out] > 30 µM

[in] Quick one: O=C(O)CCCC[C@@H]1SC[C@@H]2NC(=O)N[C@@H]21
[out] > 10 µM

---

Biological target: Peroxisome proliferator-activated receptor gamma (Homo sapiens); also: assay procedure not described here
Sequence (P37231 whole entry): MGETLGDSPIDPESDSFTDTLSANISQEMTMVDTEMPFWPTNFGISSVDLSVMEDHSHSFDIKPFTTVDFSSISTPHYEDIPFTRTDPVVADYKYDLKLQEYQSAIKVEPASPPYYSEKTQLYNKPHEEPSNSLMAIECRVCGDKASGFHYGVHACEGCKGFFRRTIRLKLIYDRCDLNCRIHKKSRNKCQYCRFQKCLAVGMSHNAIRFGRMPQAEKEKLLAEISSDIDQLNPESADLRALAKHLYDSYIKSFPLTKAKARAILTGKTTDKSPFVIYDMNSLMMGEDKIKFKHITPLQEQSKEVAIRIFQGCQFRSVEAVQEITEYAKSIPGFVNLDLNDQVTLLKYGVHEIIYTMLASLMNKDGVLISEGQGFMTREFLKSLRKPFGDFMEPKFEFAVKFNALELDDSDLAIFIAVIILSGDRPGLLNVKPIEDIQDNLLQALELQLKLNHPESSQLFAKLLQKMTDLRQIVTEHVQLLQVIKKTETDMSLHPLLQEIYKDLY
Format: functional
For each of the compounds below, state its AC50.

[in] Which AC50 is reported for this compound? CS(=O)(=O)NC(=O)CCC/C=C\C[C@H]1C(=O)C[C@@H](O)[C@@H]1/C=C/[C@@H](O)COc1ccccc1
[out] > 30 µM

[in] What about COC(=O)c1ccc2c(c1)NC(=O)/C2=C(\Nc1ccc(N(C)C(=O)CN2CCN(C)CC2)cc1)c1ccccc1 ?
[out] 4.8 µM

[in] # repeat for C[C@H](Nc1ncnc2[nH]cnc12)c1cc2cccc(Cl)c2c(=O)n1-c1ccccc1
[out] > 30 µM

[in] What about CCCCCCCC/C=C\CCCCCCCC(=O)O ?
[out] > 300 µM

[in] Entry COc1cc2c(cc1OC)C1CC(=O)C(CC(C)C)CN1CC2 (configuration not stated) please
[out] > 30 µM

[in] Next: C[C@H](CCC(=O)O)[C@H]1CC[C@H]2[C@@H]3[C@H](O)C[C@@H]4C[C@H](O)CC[C@]4(C)[C@H]3CC[C@]12C
[out] > 30 µM

[in] Would you mind doing CC1=C(C(=O)O)N2C(=O)[C@@H](NC(=O)[C@H](N)C3=CCC=CC3)[C@H]2SC1 as well?
[out] > 30 µM

[in] // same read-out, input: CCCCCCOC(=O)NC(=N)c1ccc(NCc2nc3cc(C(=O)N(CCC(=O)OCC)c4ccccn4)ccc3n2C)cc1 [DABIGATRAN ETEXILATE]
[out] > 30 µM

[in] Ok, now COc1ccc(-n2nc(C(N)=O)c3c2C(=O)N(c2ccc(N4CCCCC4=O)cc2)CC3)cc1
[out] > 30 µM

[in] Same for Nc1c2c(nc3ccccc13)CCCC2O (configuration not stated)
[out] > 30 µM

[in] Then what about the compound c1cnc2cc3c(cc2n1)[C@@H]1CNC[C@H]3C1 ?
[out] > 30 µM

[in] Now the compound CCN(CC)CCCN(c1ccccc1)C1Cc2ccccc2C1
[out] > 30 µM

---

I'd be grateful if you could share measured AC50 for these entries.
target: Sodium-dependent noradrenaline transporter (Homo sapiens); also: assay procedure not described here
Sequence (P23975 whole entry): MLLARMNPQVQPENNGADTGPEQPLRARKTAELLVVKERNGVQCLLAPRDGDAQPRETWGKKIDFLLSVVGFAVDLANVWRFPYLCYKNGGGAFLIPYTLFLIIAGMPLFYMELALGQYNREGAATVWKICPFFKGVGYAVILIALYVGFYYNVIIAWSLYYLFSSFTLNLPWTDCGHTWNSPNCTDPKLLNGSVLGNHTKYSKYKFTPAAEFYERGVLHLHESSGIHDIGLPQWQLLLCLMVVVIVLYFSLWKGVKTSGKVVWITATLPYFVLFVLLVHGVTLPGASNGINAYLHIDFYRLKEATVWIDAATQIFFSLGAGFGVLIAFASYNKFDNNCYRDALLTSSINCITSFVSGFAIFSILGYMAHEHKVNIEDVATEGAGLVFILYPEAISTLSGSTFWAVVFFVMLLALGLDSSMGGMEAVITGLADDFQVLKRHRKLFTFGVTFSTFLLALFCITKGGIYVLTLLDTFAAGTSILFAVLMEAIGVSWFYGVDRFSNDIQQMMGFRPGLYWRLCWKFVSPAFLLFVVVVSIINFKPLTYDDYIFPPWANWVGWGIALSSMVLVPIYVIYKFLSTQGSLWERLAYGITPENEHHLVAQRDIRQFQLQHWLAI
A number alone suffices; assume µM.

[in] Would you mind telling me what AC50 value was observed for COc1ccc(-c2cc(=S)ss2)cc1 [ANETHOLTRITHION] ?
[out] 7.3

[in] Let us now turn to Cc1c(C)c2c(c(C)c1O)CCC(C)(COc1ccc(CC3SC(=O)NC3=O)cc1)O2 (centres undefined) [TROGLITAZONE]
[out] 15

[in] Also, CN1CC2c3ccccc3Oc3ccc(Cl)cc3C2C1 (centres undefined) [ASENAPINE] please.
[out] 17

[in] Also CC(=O)Oc1cccc2c1C(=O)c1c(OC(C)=O)cc(C(=O)O)cc1C2=O [DIACEREIN] , if possible.
[out] 13

---

molecular target: 5-hydroxytryptamine receptor 2A (Homo sapiens, UniProt P28223); type: functional, cell-based; also: assay procedure not described here
Sequence (P28223 whole entry): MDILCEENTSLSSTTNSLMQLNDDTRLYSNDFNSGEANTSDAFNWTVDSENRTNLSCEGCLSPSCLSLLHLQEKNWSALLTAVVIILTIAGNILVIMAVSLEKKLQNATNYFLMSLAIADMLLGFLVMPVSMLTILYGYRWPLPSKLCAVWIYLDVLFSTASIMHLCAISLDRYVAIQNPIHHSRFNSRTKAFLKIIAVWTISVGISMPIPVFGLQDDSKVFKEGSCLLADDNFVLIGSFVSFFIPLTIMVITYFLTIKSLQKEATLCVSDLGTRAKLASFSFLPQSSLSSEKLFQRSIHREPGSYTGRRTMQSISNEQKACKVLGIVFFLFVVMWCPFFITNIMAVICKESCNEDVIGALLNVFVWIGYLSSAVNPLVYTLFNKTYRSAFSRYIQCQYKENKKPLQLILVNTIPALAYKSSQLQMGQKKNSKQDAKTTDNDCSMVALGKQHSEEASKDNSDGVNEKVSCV
Quantity Kind: AC50

[in] Could you share which AC50 value was measured for CCOC(=O)Nc1ccc(NCc2ccc(F)cc2)nc1N [FLUPIRTINE] ?
[out] > 30 µM

[in] Again, but for CCC(=O)[C@@]1(C)[C@H](C)C[C@H]2[C@@H]3CCC4=CC(=O)C=C[C@]4(C)[C@H]3[C@@H](O)C[C@@]21C [RIMEXOLONE]
[out] > 10 µM

[in] Also C#CCN(C)Cc1ccccc1 [PARGYLINE] ?
[out] > 30 µM

[in] Can you check CC(=O)SCC(Cc1ccccc1)C(=O)NCC(=O)OCc1ccccc1 (centres undefined) [RACECADOTRIL] next?
[out] > 30 µM

[in] One more compound: CC(C(=O)O)c1ccc(C(=O)c2ccccc2)s1 (centres undefined) [TIAPROFENIC ACID]
[out] > 30 µM

[in] Also Cc1ccc(S(=O)(=O)NC(=O)N[C@H]2[C@H]3CC[C@@](C)([C@H]2O)C3(C)C)cc1 [GLIBORNURIDE] , if possible.
[out] > 30 µM

[in] Try CCN(c1cc(-c2ccc(CN3CCOCC3)cc2)cc(C(=O)NCc2c(C)cc(C)[nH]c2=O)c1C)C1CCOCC1 [TAZEMETOSTAT] next.
[out] > 30 µM

[in] What do we get for CN(C)CCC(O)(c1ccccc1)c1ccccc1Cl (centres undefined) [CHLOPHEDIANOL] ?
[out] > 10 µM

[in] Also COc1cc(N)cn[n+]1-c1ccccc1 [AMEZINIUM METILSULFATE] ?
[out] > 30 µM
